Values from patent US20200407436A1

# Measured on: T1, mature human TGF-beta 2 (human, UniProt P61812 303-414)
# T1 sequence: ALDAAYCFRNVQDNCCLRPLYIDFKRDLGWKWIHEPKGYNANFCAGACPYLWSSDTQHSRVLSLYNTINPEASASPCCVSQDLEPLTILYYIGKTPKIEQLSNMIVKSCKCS
# Test: cell-based or functional assay
# maps each entry to its Geometric mean IC50, HEK-Blue TGF-beta reporter gene assay
Assay metric: Geometric mean IC50, HEK-Blue TGF-beta reporter gene assay (nM)

humanised antibody 4856 Fab graft gL3gH20 (Fab, V domains shown) VH: EVQLVESGGGLVKPGGSLRLSCAASGFSLSSYDMSWVRQAPGKGLEWISIIYGGSGSTWYASWAKGRFTMSKDSAKNSVYLQMNSLRAEDTAVYYCARGRDAGAGGSRNGYSLWGQGTLVTVSS VL: AYDMTQSPSTLSASVGDRVTITCQASESIYSGLAWYQQKPGKAPKLLIYAASDLASGVPSRFSGSGSGTEYTLTISSLQPDDFATYYCQQTWTDGGIDNPFGGGTKVEIKR ... 0.011
humanised antibody 4856 Fab graft gL3gH29 (Fab, V domains shown) VH: EVQLVESGGGLVKPGGSLRLSCAASGFSLSSYDMSWVRQAPGKGLEWIGIIYGGSGSTWYASWAKGRFTISRDSAKNSVYLQMNSLRAEDTAVYYCARGRDAGAGGSRDGYSLWGQGTLVTVSS VL: AYDMTQSPSTLSASVGDRVTITCQASESIYSGLAWYQQKPGKAPKLLIYAASDLASGVPSRFSGSGSGTEYTLTISSLQPDDFATYYCQQTWTDGGIDNPFGGGTKVEIKR ... 0.016
humanised antibody 4856 Fab graft gL3gH13 (Fab, V domains shown, Human gamma-1 CH1 (G1m17) and human C-kappa (K1m3); also called 4856gL3gH13) VH: EVQLVESGGGLVKPGGSLRLSCAASGFSLSSYDMSWVRQAPGKGLEWIGIIYGGSGSTWYASWAKGRFTISRDSAKNSVYLQMNSLRAEDTAVYYCARGRDAGAGGSRNGYSLWGQGTLVTVSS VL: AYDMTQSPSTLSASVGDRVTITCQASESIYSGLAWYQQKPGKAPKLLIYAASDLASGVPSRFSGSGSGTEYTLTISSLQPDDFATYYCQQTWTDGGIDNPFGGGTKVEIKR ... 0.01
humanised antibody 4856 Fab graft gL3gH23 (Fab, V domains shown) VH: EVQLVESGGGLVKPGGSLRLSCAASGFSLSSYDMSWVRQAPGKGLEWIGIIYGGSGSTWYASWAKGRFTISRDSAKNSVYLQMNSLRAEDTAVYYCARGRDAGAGGSRNAYSLWGQGTLVTVSS VL: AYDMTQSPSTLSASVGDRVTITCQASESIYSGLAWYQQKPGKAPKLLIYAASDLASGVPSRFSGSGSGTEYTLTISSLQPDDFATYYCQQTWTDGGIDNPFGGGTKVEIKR ... 0.017
